These entries and their values trace back to PubChem BioAssay (NCI).

System: RXF 393 renal
Assay: NCI-60 one-dose screen, 48 h (100 = growth as untreated, 0 = no growth, -100 = all killed)
Settings: 10 µM unless noted
About 83,000 compounds went through this panel and 20% of them were active in at least one assay; those are over-represented in the sample as a whole. Calls of active or inactive are those of the source. Rule for the calls: active = growth percent below 10; inactive = the rest.
# growth per record follows

[
  {
    "MOLECULE": "O=C1NN(c2ccccc2)C(c2ccc3c(c2)OCO3)N2CCC[C@@H]12 (some centres not stated)",
    "EXPERIMENTAL READOUT": "growth",
    "RESULT": "117% (inactive)"
  }
]

# query: growth of entry "COCCc1n(Cc2ccc3ccccc3c2)c2ccccc2[n+]1Cc1ccc2ccccc2c1"
-44.3% (active)

// same read-out, input: "Nc1c(C(=O)Nc2ccccc2Cl)sc2nc3c(cc12)CN(Cc1ccccc1)CC3"
110% (inactive)

Would you mind doing "CN1CCN(S(=O)(=O)O[C@@H]2C(=O)N(c3cc4c5ccccc5ccc4c4ccccc34)[C@H]2c2ccc(F)cn2)CC1" as well?
77.6% (inactive)

Here is the next molecule: "Nc1ccccc1NS(=O)(=O)c1ccc(Cl)cc1"
115% (inactive)

O=C1CCC23OC(C(O)c4ccccc4N12)C1C(Br)=NOC13 (configuration not stated) , same question.
114% (inactive)

Quick one: "COc1ccc2nc(-c3ccc(Cl)cc3)cc(-c3nnc(SCC(=O)Nc4ccc(/C(C)=N\O)cc4)o3)c2c1"
39.7% (inactive)

====

Tested on: SNB-75 CNS
Test: NCI-60 one-dose screen, 48 h (100 = growth as untreated, 0 = no growth, -100 = all killed)
Conditions: 10 µM unless noted
This is part of a sample that, as a whole, favours compounds with a hit. Of some 83,000 tested, about 20% had one in any assay.
// Not satisfied strictly below 40% in growth; Satisfied otherwise

Reference set, count: 6
[
  {
    "COMPOUND": "COc1ccc(C2C(c3ccccc3)C(=O)N2c2cc(OC)c(OC)c(OC)c2)cc1I (configuration not stated)",
    "CLASS LABEL": "Satisfied"
  },
  {
    "COMPOUND": "O=C(O)c1cn(C2CC2)c2cc(N3CCN(C(=O)CSc4nnc(-c5ccc(Cl)cc5)n4-c4ccccc4)CC3)c(F)cc2c1=O",
    "CLASS LABEL": "Satisfied"
  },
  {
    "COMPOUND": "COC(=O)/C=C/c1cc(OC(C)=O)c2c(c1)C(C(=O)OC)C(c1ccc(OC(C)=O)c(OC(C)=O)c1)O2 (configuration not stated)",
    "CLASS LABEL": "Satisfied"
  },
  {
    "COMPOUND": "COc1ccc2[nH]c(=O)c(/C=C/C(=O)/C=C/c3ccc(O)c(OC)c3)cc2c1",
    "CLASS LABEL": "Satisfied"
  },
  {
    "COMPOUND": "CNCc1cccc2c1OCCOCCOCCN(CCN1CCOCC1)S(=O)(=O)c1ccc(cc1)-c1cnc(N)c(n1)C(=O)N2",
    "CLASS LABEL": "Not satisfied"
  },
  {
    "COMPOUND": "N#Cc1c(-c2ccc(F)cc2)nc(N=Nc2c(O)[nH]c3ccc(Cl)cc23)nc1N1CCOCC1",
    "CLASS LABEL": "Not satisfied"
  }
]

Assess whether reported growth for O=C(Nc1ccc(N=Cc2ccccc2O)cc1)NC1C=c2ccccc2=CC1 (configuration not stated) sits at 40% or higher.
Satisfied

Do the same for "CCOC(=O)/C(=C/c1c(-c2ccccc2)[nH]c2ccccc12)C(=O)c1ccc(Cl)cc1" please
Not satisfied

Repeat with "COc1ccc2c(c1)/C(=C1\S/C(=N/c3nnc(C)s3)NC1=O)C(=O)N2Cc1ccc(Cl)cc1"
Satisfied
